assay.system: C5AR1 (Homo sapiens (Human), UniProt P21730)
Sequence (P21730 whole entry): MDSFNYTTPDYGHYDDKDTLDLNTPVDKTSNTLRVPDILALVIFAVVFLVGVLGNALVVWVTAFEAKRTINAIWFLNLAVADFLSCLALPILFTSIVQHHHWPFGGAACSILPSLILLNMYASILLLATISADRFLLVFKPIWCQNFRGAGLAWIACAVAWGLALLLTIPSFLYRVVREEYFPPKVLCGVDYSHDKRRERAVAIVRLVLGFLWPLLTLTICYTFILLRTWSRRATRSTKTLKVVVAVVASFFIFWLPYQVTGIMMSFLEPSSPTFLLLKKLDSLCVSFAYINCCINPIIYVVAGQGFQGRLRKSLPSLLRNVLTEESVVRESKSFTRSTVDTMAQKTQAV
test.method.notes: In vitro assay: PathHunter beta-arrestin antagonist assay in CHO-K1 C5AR1 beta-arrestin cell line, stimulated with C5a agonist
reported.conditions: read-out: C5aR IC50; CHO-K1 C5AR1 beta-arrestin cell line; 1-10 nM C5a agonist; geometric mean values

[
  {
    "compound": "COc1cccc2c1N(Cc1ccccc1C(F)(F)F)C(=O)N([C@@H]1CCN(c3c(C)cccc3C)C1)C2 [Example 9]",
    "assay.system": "C5AR1 (Homo sapiens (Human), UniProt P21730)",
    "IC50, nM": 25
  },
  {
    "compound": "Cc1cccc(F)c1N1CCC(N2Cc3ccccc3N(Cc3ccccc3OCC3CC3)C2=O)CC1 [Example 54]",
    "assay.system": "C5AR1 (Homo sapiens (Human), UniProt P21730)",
    "IC50, nM": 66
  },
  {
    "compound": "Cc1cccc(F)c1N1CCCC(N2Cc3ccccc3N(Cc3ccccc3C(F)(F)F)C2=O)CC1 (stereo not shown) [Example 77]",
    "assay.system": "C5AR1 (Homo sapiens (Human), UniProt P21730)",
    "IC50, nM": 175
  },
  {
    "compound": "Cc1cccc(F)c1N1CCC(N2Cc3ccccc3N(Cc3ccccc3OC3CCC3)C2=O)CC1 [Example 52]",
    "assay.system": "C5AR1 (Homo sapiens (Human), UniProt P21730)",
    "IC50, nM": 69
  },
  {
    "compound": "Cc1cccc(F)c1N1CC[C@@H](N2Cc3ccccc3N(Cc3ccccc3C(F)(F)F)C2=O)C1 [Example 26]",
    "assay.system": "C5AR1 (Homo sapiens (Human), UniProt P21730)",
    "IC50, nM": 35
  },
  {
    "compound": "Cc1cccc(F)c1N1CCC(N2Cc3cncnc3N(Cc3ccccc3C(F)(F)F)C2=O)CC1 [Example 64]",
    "assay.system": "C5AR1 (Homo sapiens (Human), UniProt P21730)",
    "IC50, nM": 782
  },
  {
    "compound": "Cc1cccc(C)c1N1CC[C@H](N2Cc3ccccc3N(Cc3ccccc3C(F)(F)F)C2=O)C1 [Example 14]",
    "assay.system": "C5AR1 (Homo sapiens (Human), UniProt P21730)",
    "IC50, nM": 627
  },
  {
    "compound": "COc1ccccc1CN1C(=O)N(C2CCN(c3c(C)cccc3F)CC2)Cc2ccccc21 [Example 37]",
    "assay.system": "C5AR1 (Homo sapiens (Human), UniProt P21730)",
    "IC50, nM": 138
  },
  {
    "compound": "COC(=O)C(c1ccccc1OC)N1C(=O)N(C2CCN(c3c(C)cccc3F)CC2)Cc2ccccc21 (stereo not shown) [Example 49]",
    "assay.system": "C5AR1 (Homo sapiens (Human), UniProt P21730)",
    "IC50, nM": 102
  },
  {
    "compound": "N#Cc1cccc(F)c1N1CCC(N2Cc3ccccc3N(Cc3nccnc3C(F)(F)F)C2=O)CC1 [Example 38]",
    "assay.system": "C5AR1 (Homo sapiens (Human), UniProt P21730)",
    "IC50, nM": 211
  },
  {
    "compound": "Cc1cccc(F)c1N1CC(N2Cc3ccccc3N(Cc3ccccc3C(F)(F)F)C2=O)C1 [Example 81]",
    "assay.system": "C5AR1 (Homo sapiens (Human), UniProt P21730)",
    "IC50, nM": 1280
  },
  {
    "compound": "Cc1cccc(F)c1N1CCC(N2Cc3ccccc3N(Cc3ccccc3OCCO)C2=O)CC1 [Example 50]",
    "assay.system": "C5AR1 (Homo sapiens (Human), UniProt P21730)",
    "IC50, nM": 2560
  },
  {
    "compound": "O=C1N(Cc2ccccc2C(F)(F)F)c2ccccc2CN1[C@@H]1CCN(c2c(F)cccc2F)C1 [Example 19]",
    "assay.system": "C5AR1 (Homo sapiens (Human), UniProt P21730)",
    "IC50, nM": 53
  },
  {
    "compound": "Cc1cccc(C)c1N1CC[C@@H](N2Cc3ccccc3N(Cc3ccccc3C(F)(F)F)C2=O)C1 [Example 18]",
    "assay.system": "C5AR1 (Homo sapiens (Human), UniProt P21730)",
    "IC50, nM": 28
  },
  {
    "compound": "COc1ccccc1N1CC[C@@H](N2Cc3cccc(OC)c3N(Cc3ccccc3C(F)(F)F)C2=O)C1 [Example 10]",
    "assay.system": "C5AR1 (Homo sapiens (Human), UniProt P21730)",
    "IC50, nM": 1870
  },
  {
    "compound": "COc1nccnc1CN1C(=O)N(C2CCN(c3c(F)cccc3C#N)CC2)Cc2ccccc21 [Example 39]",
    "assay.system": "C5AR1 (Homo sapiens (Human), UniProt P21730)",
    "IC50, nM": 1050
  }
]
